Taken from patent US9340577B2.

target_of_assay: A*2902 (Homo sapiens, UniProt P04439, A270S/D101N/D185E/E176V/E277Q/E87Q/F33T/G231S/H175R/I121M/I218V/I322F/K168Q/L300P/L318F/M331R/P208A/P217A/Q86L/T323A/T345S/V100A/V358M)
test_name: biochemical
Assay type: binding
No end group written: not given here.
readout_kind: IC50

Solved entries (count: 2):
ordered_residues	meas_value
LQDKIIDHY [Peptide 1580.21]	> 20 µM
RTDGNRQIIGY [Peptide 9012.0158]	> 20 µM

# context switch: different sequence, same IC50
Asked: So what does the record say about IC50 for WTSTDNKNY [Peptide 1580.31] ?
Given back: > 20 µM
